The measurements presented in this section are drawn from patent US10273267B2.

# targetSystem: human neutrophil elastase (Homo sapiens)
# Sequence (P08246 30-267): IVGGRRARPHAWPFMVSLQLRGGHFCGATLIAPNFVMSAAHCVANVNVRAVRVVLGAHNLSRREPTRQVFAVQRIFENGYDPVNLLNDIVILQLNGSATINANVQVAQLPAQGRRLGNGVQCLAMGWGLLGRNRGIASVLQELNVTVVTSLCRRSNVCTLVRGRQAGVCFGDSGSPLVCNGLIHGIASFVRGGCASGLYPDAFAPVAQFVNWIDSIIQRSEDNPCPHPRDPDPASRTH
# experimentNotes: Inhibition of human neutrophil elastase (hydrolysis of MeOSuc-AAPV-pNA)
# testContext: substrate MeOSuc-AAPV-pNA 0.3 mM, enzyme 10 nM, 37° C., pH 8; read-out: Human neutrophil elastase (hNE) IC50
Where a SMILES comes first, the peptide text is derived from it. [ ]: non-standard residue; d: D form. Oic = O=C(O)[C@@H]1C[C@@H]2CCCC[C@@H]2N1; Gly(octyl) = CCCCCCCC[C@H](N)C(=O)O; hTyr = N[C@@H](CCc1ccc(O)cc1)C(=O)O; β3hK = NCCCC[C@H](N)CC(=O)O; Aze = O=C(O)[C@@H]1CCN1
measuredMetric: pIC50
// pIC50 is dimensionless: -log10 of concentration (M)

Examples with their reported pIC50 follow.
human neutrophil elastase (Homo sapiens) pIC50 of CC[C@H](C)[C@@H]1NC(=O)[C@H](CO)NC(=O)[C@H](C)NC(=O)[C@H]([C@@H](C)O)NC(=O)[C@H](CCc2ccc(O)cc2)NC(=O)[C@H](CCCNC(=N)N)NC(=O)[C@@H]2CCCN2C(=O)[C@H]2CCCN2C(=O)[C@H]([C@@H](C)O)NC(=O)[C@H](CCCCN)NC(=O)[C@H](CCC(N)=O)NC(=O)[C@@H]2C[C@@H]3CCCC[C@@H]3N2C(=O)[C@@H]2CCCN2C1=O [Example 42] (cyclo(R[hTyr]TASIP[Oic]QKT[dP]P)) is 8.32

human neutrophil elastase (Homo sapiens) pIC50 of CC[C@H](C)[C@@H]1NC(=O)[C@H](CO)NC(=O)[C@H](C)NC(=O)[C@H]([C@@H](C)O)NC(=O)[C@H](CCC(=O)O)NC(=O)[C@H](CCCNC(=N)N)NC(=O)[C@@H]2CCCN2C(=O)[C@H]2CCCN2C(=O)[C@H]([C@@H](C)O)NC(=O)[C@H](CCCCN)NC(=O)[C@H](CCC(N)=O)NC(=O)[C@@H]2C[C@@H]3CCCC[C@@H]3N2C(=O)[C@@H]2CCCN2C1=O [Example 16] (cyclo(RETASIP[Oic]QKT[dP]P)) is 7.82

human neutrophil elastase (Homo sapiens) pIC50 of CCCCCCCC[C@@H]1NC(=O)[C@@H]2CCCN2C(=O)[C@H]2CCCN2C(=O)[C@H]([C@@H](C)O)NC(=O)[C@H](CCCCN)NC(=O)[C@H](CCC(N)=O)NC(=O)[C@@H]2CCN2C(=O)[C@@H]2CCCN2C(=O)[C@H]([C@@H](C)CC)NC(=O)[C@H](CO)NC(=O)[C@H](C)NC(=O)[C@H]([C@@H](C)O)NC(=O)[C@H](CCC(=O)O)NC1=O [Example 46] (cyclo([Gly(octyl)]ETASIP[Aze]QKT[dP]P)) is 8.15

human neutrophil elastase (Homo sapiens) pIC50 of CCCCCCCC[C@@H]1NC(=O)[C@@H]2CCCN2C(=O)[C@H]2CCCN2C(=O)[C@H]([C@@H](C)O)NC(=O)C[C@H](CCCCN)NC(=O)[C@H](CCC(N)=O)NC(=O)[C@@H]2CCCN2C(=O)[C@@H]2CCCN2C(=O)[C@H]([C@@H](C)CC)NC(=O)[C@H](CO)NC(=O)[C@H](C)NC(=O)[C@H]([C@@H](C)O)NC(=O)[C@H](CCC(=O)O)NC1=O [Example 37] (cyclo([Gly(octyl)]ETASIPPQ[β3hK]T[dP]P)) is 7.38

Field: next compound
human neutrophil elastase (Homo sapiens) pIC50 of CCCCCCCC[C@@H]1NC(=O)[C@H](Cc2ccc(O)cc2)NC(=O)[C@@H](CO)NC(=O)[C@H]([C@@H](C)O)NC(=O)[C@H](CCCCN)NC(=O)[C@H](CCC(N)=O)NC(=O)[C@@H]2CCCN2C(=O)[C@@H]2CCCN2C(=O)[C@H]([C@@H](C)CC)NC(=O)[C@H](CO)NC(=O)[C@H](C)NC(=O)[C@H]([C@@H](C)O)NC(=O)[C@H](CCC(=O)O)NC1=O [Example 31] (cyclo([Gly(octyl)]ETASIPPQKT[dS]Y)) is 7.64
